- ASSAY_NAME: in vitro
- ASSAY_CONTEXT: human, hela cells, % viability
PROPERTY: viability at 28.5 h, 10 µM (%)
Just the number please, in %, no unit attached.

Below: 4 molecules and their reported viability at 28.5 h, 10 µM.
1) O=C(Nc1sc2c(c1C(=O)NCc1cccnc1)CCCC2)c1sc2ccccc2c1Cl [CBK266334]: 95.9
2) COc1ccc(CCNS(=O)(=O)c2cccc([N+](=O)[O-])c2)cc1OC [CBK263618]: 89.5
3) Cc1nc(C)c(-c2csc(CC(C)n3cc(Cl)cn3)n2)o1 (stereo not shown) [CBK304710]: 106
4) CCN(CC)C(=O)c1ccccc1NS(=O)(=O)c1ccc(F)cc1 [CBK045414]: 87.7

Data point: NC(=O)C1(Cc2ccc(-c3ccccc3)cc2)CCN(C(=O)COc2ccccc2)CC1 [CBK285773] ; viability at 28.5 h, 10 µM = 95.9

// sample COC(=O)Nc1nc2cc3cn[nH]c3cc2[nH]1 [CBK016129] , its viability at 28.5 h, 10 µM was 105

Cited source for all entries: paper PMC12040169
